- Test system: OVCAR-3 ovarian
- protocol.description: NCI-60 one-dose screen, 48 h
- run.conditions: 10 µM unless noted
Compounds without any hit were thinned out: in the full panel of roughly 83,000, 20% have a hit. Activity calls are given as the source filed them. The calls were made as follows: active = growth percent below 10; inactive = the rest.
Your response should consist of one outcome taken from true for active, false for inactive

Worked set:
- compound: "COc1cc2c(cc1OC)C(=O)OC2"
  answer.label: "false"
- compound: "CCCCCc1c(C)[nH]c(/C=C2\\N=C(c3ccc[nH]3)C=C2CC)c1C"
  answer.label: "true"
- compound: "COc1cc(OC)cc(-c2n/c(=C\\c3c(O)[nH]c4ccc(Cl)cc34)cc3c2=Nc2ccccc2-3)c1"
  answer.label: "false"
- compound: "NC(=O)c1noc(C(=O)c2ccccc2)c1N"
  answer.label: "false"
- compound: "CC(=O)c1cc(C(=O)c2ccc3c(c2)Sc2ccccc2N3)c2c(C)cccn12"
  answer.label: "true"
- compound: "C[C@@H](C[C@H](CC1CC1)c1ccccc1)c1ccc2ccccc2c1"
  answer.label: "false"

Hi, sorry to bother you, what did the test record for CC1(C)C(N(O)C(=O)Nc2ccc(Cl)cc2)N(c2ccc(Cl)cc2)C(=O)N1CC(=O)N/N=C/C=C/c1ccc([N+](=O)[O-])o1 (centres undefined) ? true

Thanks! And "CCNS(=O)(=O)c1ccc(C)cc1" ? false

Field entry: CC(OC(=O)Nc1cccc(Cl)c1)C(=O)O (centres undefined) false

// repeat for "CCCCc1n(Cc2ccc3ccccc3n2)cc[n+]1Cc1ccc2ccccc2n1" and report true

Now this one: "Cc1ccc(NC(=O)Cn2nncc2CN2C(=O)CSC2=O)cc1C" false
